Test system: A431
Assay: whole-cell filipin (free cholesterol) integrated intensity, Z-score; higher = more cholesterol staining
Conditions: compound concentration in added solution (µM; 5 µl added to 20 µl cells): 10; 18 h
Counter-ions that a name gives are not always drawn.
Short version: whole-cell filipin (z-score) at least -0.8 is yes, less is no.

[[record]]
compound = "CCc1c(C)[nH]c2c1C(=O)C(CN1CCOCC1)CC2 (stereo unspecified) [Molindone hydrochloride]"
subject_of_test = "A431"
classification = "yes"

[[record]]
compound = "CS(=O)(=O)c1ccc(C2=C(c3ccccc3)C(=O)OC2)cc1"
subject_of_test = "A431"
classification = "no"

[[record]]
compound = "O=C(O)CCCC[C@@H]1SC[C@@H]2NC(=O)N[C@@H]21"
subject_of_test = "A431"
classification = "yes"

[[record]]
compound = "Cc1ncc(CO)c(CO)c1O [Pyridoxine hydrochloride]"
subject_of_test = "A431"
classification = "yes"

[[record]]
compound = "C#C[C@]1(O)CC[C@H]2[C@@H]3CCC4=CCCC[C@@H]4[C@H]3CC[C@@]21C"
subject_of_test = "A431"
classification = "no"


Entry source: the supplement of paper PMC6607015
